Recorded values, source patent US8580965B2.

- ASSAYED TARGET: B1R receptor of the rat (bradykinin 1 receptor) (Rattus norvegicus)
- Construct: host or cells: CHO K1 cells (rB1R cells)
- Sequence (P97583 1-337): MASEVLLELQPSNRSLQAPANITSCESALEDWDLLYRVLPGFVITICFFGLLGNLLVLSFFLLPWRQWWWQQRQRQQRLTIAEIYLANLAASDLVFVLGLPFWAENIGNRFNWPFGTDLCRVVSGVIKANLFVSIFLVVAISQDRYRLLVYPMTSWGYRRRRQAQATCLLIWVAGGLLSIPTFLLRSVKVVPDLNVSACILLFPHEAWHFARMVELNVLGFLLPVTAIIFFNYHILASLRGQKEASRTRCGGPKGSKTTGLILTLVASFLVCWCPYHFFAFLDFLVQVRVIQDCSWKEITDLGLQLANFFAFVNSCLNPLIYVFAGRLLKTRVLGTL
- TEST PROTOCOL: FLIPR Ca2+ assay (Fluo-4) on CHO K1 cells stably transfected with the B1R gene of the rat; % activation and % inhibition at 10 μM
- Assay type: cell-based
- CONDITION LABEL: CHO-K1, test substance 10 μM; CHO K1 rB1R cells; Ca2+ inflow after 100 nM Des-Arg9-bradykinin; read-out: B1R antagonism, rat [10 μM] % inhibition
RESULT TYPE: inhibition at 10 µM (%)
Your answer should be a plain number; it is taken to be in %.

Q: If you can, please state the reported inhibition at 10 µM value of O=C(COCC1CCCN1S(=O)(=O)c1c(Cl)cc(C(F)(F)F)cc1Cl)N1CCC(O)(c2cccc(C(F)(F)F)c2)CC1 (stereo not drawn) [Example 170] .
Ans: 103

Q: If you can, please state the reported inhibition at 10 µM value of O=C(COCC1CCCCN1S(=O)(=O)c1ccccc1C(F)(F)F)N1CCC(O)(c2ccc(Br)cc2)CC1 (stereo not drawn) [Example 174] .
Ans: 105

Q: If you can, please state the reported inhibition at 10 µM value of COc1cc(C)c(S(=O)(=O)N2CCCC2COCC(=O)N2CCC(O)(c3cccs3)CC2)c(C)c1 (stereo not drawn) [Example 239] .
Ans: 98.9

Q: If you can, please state the reported inhibition at 10 µM value of O=C(COCC1CCCCN1S(=O)(=O)c1cccc(C(F)(F)F)c1)N1CCC(O)(Cc2ccccc2)CC1 (stereo not drawn) [Example 65] .
Ans: 25.8

Q: If you can, please state the reported inhibition at 10 µM value of COc1ccc(S(=O)(=O)N2Cc3ccccc3CC2COCC(=O)N2CCC(O)(c3ccccn3)CC2)cc1 (stereo not drawn) [Example 50] .
Ans: 47.5

Q: If you can, please state the reported inhibition at 10 µM value of COc1cc(C)c(S(=O)(=O)N2CCCC(COCC(=O)N3CCC(O)(Cc4ccccc4)CC3)C2)c(C)c1 (stereo not drawn) [Example 252] .
Ans: 100

Q: If you can, please state the reported inhibition at 10 µM value of O=C(COCCN1CCN(S(=O)(=O)c2ccccc2)CC1)N1CCC(O)(c2ccncc2)CC1 [Example 49] .
Ans: 7.14

Q: If you can, please state the reported inhibition at 10 µM value of COc1ccc(S(=O)(=O)N(C)CCOCC(=O)N2CCC(O)(c3ccccn3)CC2)cc1 [Example 42] .
Ans: -38.1

Q: If you can, please state the reported inhibition at 10 µM value of COc1cc(C)cc(C)c1S(=O)(=O)N1CCC(OCC(=O)N2CCC(O)(Cc3ccccc3)CC2)C1 (stereo not drawn) [Example 265] .
Ans: 29.5

Q: If you can, please state the reported inhibition at 10 µM value of COc1cc(C)c(S(=O)(=O)N2CCCC2COCC(=O)N2CCC(O)(c3cccnc3)CC2)c(C)c1 (stereo not drawn) [Example 193] .
Ans: 96.6

Q: If you can, please state the reported inhibition at 10 µM value of COc1cc(C)c(S(=O)(=O)N(CCOCC(=O)N2CCC(O)(c3ccc(Cl)cc3)CC2)CC(C)C)c(C)c1C [Example 209] .
Ans: 100

Q: If you can, please state the reported inhibition at 10 µM value of COc1cc(C)c(S(=O)(=O)N2CCCC(COCC(=O)N3CCC(O)(c4ccc(Cl)cc4)CC3)C2)c(C)c1 (stereo not drawn) [Example 251] .
Ans: 92.9

Q: If you can, please state the reported inhibition at 10 µM value of Cc1cc(C)c(S(=O)(=O)N2Cc3ccccc3CC2COCC(=O)N2CCC(O)(c3ccc(Cl)cc3)CC2)c(C)c1 (stereo not drawn) [Example 200] .
Ans: 98.1

Q: If you can, please state the reported inhibition at 10 µM value of Cc1ccc2ccccc2c1S(=O)(=O)N(C)CCOCC(=O)N1CCC(O)(c2cccnc2)CC1 [Example 148] .
Ans: 99

Q: If you can, please state the reported inhibition at 10 µM value of Cc1cc(C)c(S(=O)(=O)N2Cc3ccccc3CC2COCC(=O)N2CCC(O)(c3ccccc3)CC2)c(C)c1 (stereo not drawn) [Example 101] .
Ans: 85.4
